experiment: Therapeutic index, ratio of MTD for mouse P388 cells allografted ip dosed mouse to MED for mouse P388 cells allografted in ip dosed mouse administered as single dose; assay type: organism-based; conditions: in vivo, read-out: TI
Here the recorded selectivity ratio is given for each entry.
Respond using a number only.

{"compound": "O=P1(N(CCCl)CCCl)NCCCO1 (stereo not given) [CYCLOPHOSPHAMIDE ANHYDROUS]", "selectivity ratio": 13}
{"compound": "COc1cccc2c1C(=O)c1c(O)c3c(c(O)c1C2=O)C[C@@](O)(C(C)=O)C[C@@H]3O[C@H]1C[C@H](N)[C@H](O)[C@H](C)O1", "selectivity ratio": 10}
{"compound": "O=c1[nH]cc(F)c(=O)[nH]1", "selectivity ratio": 3}
{"compound": "CN(Cc1cnc2nc(N)nc(N)c2n1)c1ccc(C(=O)N[C@@H](CCC(=O)O)C(=O)O)cc1 [METHOTREXATE]", "selectivity ratio": 4}

Here is the next item to consider.
Name the reported selectivity ratio value associated with the compound Cl.Cl.O=C1c2c(O)ccc(O)c2C(=O)c2c(NCCNCCO)ccc(NCCNCCO)c21 [MITOXANTRONE HYDROCHLORIDE]
28
